- assay_target: Hexose transporter 1 (Plasmodium falciparum) (UniProt O97467)
- assay_protocol: ST_JUDE_LEISH: Cytotoxicity at 2uM final concentration against transgenic Leishmania Mexicana promastigotes LmPfHT that are glucose transport deficient and complemented with the Plasmodium falciparum hexose transporter. Activity is measured by DNA content using SYBR green in vitro
- Assay type: functional
Binary classification by inhibition, with 3% as an inclusive lower bound for 1.0; all other cases are 0.0.

Observe how each entry below is paired with its result.
- O=C(/C=C/c1ccc(Cl)c(Cl)c1)N1CCC(NCc2ccc3[nH]ccc3c2)CC1: 1.0
- CC1(C)NC(N)=NC(=N)N1OCOc1cc(Cl)c(Cl)cc1Cl: 0.0
- Cc1cc2ccc(-c3cccc(CN)c3)cc2nc1N: 0.0

Exam item: Would you say `Cc1ccc(-c2cc(C(=O)Nc3ccc(S(=O)(=O)N4CCOCC4)cc3)[nH]n2)c(O)c1C` shows inhibition at minimum 3%?
Marked response: 0.0

Exam item: Form field: inhibition at least 3%? Entry: `Cc1[nH]c(C)c(-c2ccc(-c3cccc(Cl)c3)nc2)c(=O)c1Cl`
Marked response: 0.0
